target: EGFR (Homo sapiens); construct: GST-tagged EGFR (696–1022), intracellular kinase domain; test: SPR (Biacore T200, GST-EGFR captured by anti-GST on CM5 chip); also kinase assay (Kinase-Glo) IC50 about […]
Sequence (P00533 696-1022): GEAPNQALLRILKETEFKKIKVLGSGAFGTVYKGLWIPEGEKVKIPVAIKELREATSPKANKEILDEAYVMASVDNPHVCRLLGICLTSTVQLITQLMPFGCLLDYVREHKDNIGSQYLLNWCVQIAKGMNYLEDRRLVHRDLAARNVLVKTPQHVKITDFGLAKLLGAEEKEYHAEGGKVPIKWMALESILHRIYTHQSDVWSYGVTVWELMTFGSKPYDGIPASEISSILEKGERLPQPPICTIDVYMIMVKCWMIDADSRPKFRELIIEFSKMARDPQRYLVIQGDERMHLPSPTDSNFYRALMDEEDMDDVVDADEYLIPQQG
pKd: −log10 of the molar value.
MEASURED_PARAMETER: pKd

Ask | Return reported pKd; argument: O[C@H]1[C@H]2c3cc4c(cc3CN3CCC(=C[C@@H]1O)[C@H]23)OCO4 [Lycorine]
Reply | ~5.44
